From: patent US20050282755A1

MIC P. aeruginosa by entry:
Test system: Pseudomonas aeruginosa ATCC 27853
Test: MIC, NCCLS M7-A6 broth microdilution (Table 9, no superscript)
Assay type: cell-based
Conditions: ATCC 27853
Non-standard residues stand in square brackets, D forms with d. Residues, ends and D or L forms follow the SMILES beside them. *: point of attachment. Lauroyl = CCCCCCCCCCCC(=O)*; Decanoyl = CCCCCCCCCC(=O)*
Write down the numeric answer in µg/mL and omit the unit.

Reported MIC P. aeruginosa of CCCCCCCCCCCC(=O)N[C@H](CCCNC(=N)N)C(=O)N[C@H](Cc1c[nH]c2ccccc12)C(=O)N[C@H](CCCNC(=N)N)C(=O)N[C@H](C)C(=O)N[C@H](CC(C)C)C(=O)N[C@H](C)C(=O)N[C@H](CCCNC(=N)N)C(N)=O [Peptide 245, Lauryl-rwralar-NH2] (Lauroyl-[dR][dW][dR][dA][dL][dA][dR]-NH2) : 8

Reported MIC P. aeruginosa of CCCCCCCCCC(=O)N[C@H](CCCNC(=N)N)C(=O)N[C@H](CO)C(=O)N[C@H](CCCNC(=N)N)C(=O)N[C@H](Cc1c[nH]c2ccccc12)C(=O)N[C@H](CCCNC(=N)N)C(=O)N[C@H](CC(=O)O)C(=O)N[C@@H](C(=O)N[C@H](C)C(=O)N[C@H](CCCNC(=N)N)C(=O)N[C@H](CC(N)=O)C(=O)N[C@H](Cc1ccccc1)C(=O)N[C@H](CC(C)C)C(=O)N[C@H](CCCNC(=N)N)C(N)=O)C(C)C [Peptide 253, Decanyl-rsrwrdvarnflr-NH2] (Decanoyl-[dR][dS][dR][dW][dR][dD][dV][dA][dR][dN][dF][dL][dR]-NH2) : 4

----------
System: Propionibacterium acnes ATCC 6919
Assay: MIC, agar dilution method NCCLS M11-A6, Brucella agar, anaerobic (Table 9, superscript c)
Format: cell-based
Settings: ATCC 6919
Non-standard residues stand in square brackets, D forms with d. Residues, ends and D or L forms follow the SMILES beside them. *: point of attachment. Lauroyl = CCCCCCCCCCCC(=O)*
measure: MIC P. acnes (c ug/mL)
Write down the numeric answer in c ug/mL and omit the unit.

Reported MIC P. acnes of CCCCCCCCCCCC(=O)N[C@H](CCCNC(=N)N)C(=O)N[C@H](CO)C(=O)N[C@H](CCCNC(=N)N)C(=O)N[C@H](C)C(=O)N[C@H](CCCNC(=N)N)C(=O)N[C@H](CC(=O)O)C(=O)N[C@@H](C(=O)N[C@H](C)C(=O)N[C@H](CCCNC(=N)N)C(=O)N[C@H](CC(N)=O)C(=O)N[C@H](Cc1ccccc1)C(=O)N[C@H](CCSC)C(=O)N[C@H](CCCNC(=N)N)C(N)=O)C(C)C [Peptide 239, Lauryl-rsrardvarnfmr-NH2] (Lauroyl-[dR][dS][dR][dA][dR][dD][dV][dA][dR][dN][dF][dM][dR]-NH2) : 8

----------
Tested on: Pseudomonas aeruginosa ATCC 27853
Test: MIC, NCCLS M7-A6 broth microdilution (Table 9, no superscript)
Type: cell-based
Settings: ATCC 27853
Non-standard residues stand in square brackets, D forms with d. Residues, ends and D or L forms follow the SMILES beside them. *: point of attachment. Lauroyl = CCCCCCCCCCCC(=O)*
measure: MIC P. aeruginosa

Some compounds with known MIC P. aeruginosa results, for comparison:
compound	tgt	MIC P. aeruginosa
CCCCCCCCCCCC(=O)N[C@H](CCCNC(=N)N)C(=O)N[C@H](Cc1c[nH]c2ccccc12)C(=O)N[C@H](CCCNC(=N)N)C(=O)N[C@H](C)C(=O)N[C@@H](C(=O)N[C@H](C)C(=O)N[C@H](CCCNC(=N)N)C(N)=O)C(C)C [Peptide 246, Lauryl-rwravar-NH2] (Lauroyl-[dR][dW][dR][dA][dV][dA][dR]-NH2)	Pseudomonas aeruginosa ATCC 27853	>64 µg/mL
CCCCCCCCCCCC(=O)N[C@@H](CCCNC(=N)N)C(=O)N[C@@H](CO)C(=O)N[C@@H](CCCNC(=N)N)C(=O)N[C@@H](Cc1c[nH]c2ccccc12)C(=O)N[C@@H](CCCNC(=N)N)C(=O)N[C@@H](CC(=O)O)C(=O)N[C@H](C(=O)N[C@@H](C)C(=O)N[C@@H](CCCNC(=N)N)C(N)=O)C(C)C [Peptide 101, Lauryl-RSRWRDVAR-NH2] (Lauroyl-RSRWRDVAR-NH2)	Pseudomonas aeruginosa ATCC 27853	32 µg/mL

Please find the next compound below.
Reported MIC P. aeruginosa of CCCCCCCCCCCC(=O)N[C@H](CCCNC(=N)N)C(=O)N[C@H](CC(=O)O)C(=O)N[C@@H](C(=O)N[C@H](C)C(=O)N[C@H](CCCNC(=N)N)C(=O)N[C@H](CC(N)=O)C(=O)N[C@H](Cc1ccccc1)C(N)=O)C(C)C [Peptide 124, Lauryl-rdvarnf-NH2] (Lauroyl-[dR][dD][dV][dA][dR][dN][dF]-NH2) : >64 µg/mL
